Measured values drawn from ChEMBL document CHEMBL1136094 for this set.

- EXPERIMENTAL_SYSTEM: cAMP-dependent protein kinase (PKA) (Homo sapiens, UniProt P22694+P17612+P22612)
- ASSAY_INFO: Inhibitory activity against Protein kinase A (Histone)
- Assay type: protein assay
Listed here: items and their measured IC50.

Known IC50 results, listed for orientation:
MOLECULE: COc1ccc2c3c4c(c5c(ccc6ccn(C)c65)c3n(CCCN3CCSCC3)c2c1)C(=O)NC4=O
IC50: > 20 µM
--
MOLECULE: Cn1ccc2ccc3c4[nH]c5cc(C(F)(F)F)ccc5c4c4c(c3c21)C(=O)NC4=O
IC50: > 20 µM
--
MOLECULE: COc1ccc2c3c4c(c5c(ccc6ccn(C)c65)c3n(CCN3CCC[C@H]3CO)c2c1)C(=O)NC4=O
IC50: > 20 µM

Read the next record carefully.
Lookup: Note IC50 for the molecule shown: Cn1ccc2ccc3c4[nH]c5c(CCCN6CCOCC6)cccc5c4c4c(c3c21)C(=O)NC4=O
Found: > 20 µM

###

- EXPERIMENTAL_SYSTEM: Cyclin-dependent kinase 2/cyclin E (Homo sapiens, UniProt P24941)
- ASSAY_INFO: Inhibitory activity against Cyclin E-cyclin-dependent kinase 2 in enzymatic assay by measuring phosphorylation of RbING
Quick list: IC50 per entry.

MOLECULE: Cn1ccc2ccc3c4[nH]c5cccc(CO)c5c4c4c(c3c21)C(=O)NC4=O
IC50: > 2 µM

MOLECULE: COc1cccc2c1[nH]c1c3ccc4ccn(C)c4c3c3c(c21)C(=O)NC3=O
IC50: > 2 µM

MOLECULE: Cn1ccc2ccc3c4[nH]c5ccccc5c4c4c(c3c21)C(=O)NC4=O
IC50: 0.075 µM

Lookup: Quote IC50 with test system Cyclin-dependent kinase 2/cyclin E (Homo sapiens, UniProt P24941) for CCN(CC)CCCc1cccc2c1[nH]c1c3ccc4ccn(C)c4c3c3c(c21)C(=O)NC3=O
Found: 1.5 µM

Lookup: GET IC50 | system: Cyclin-dependent kinase 2/cyclin E (Homo sapiens, UniProt P24941) | item: Cn1ccc2ccc3c4[nH]c5c(CCCN6CCOCC6)cccc5c4c4c(c3c21)C(=O)NC4=O
Found: 1.33 µM

Lookup: Find the measured IC50 of COc1cc2ccn(C)c2c2c3c(c4c5ccccc5[nH]c4c12)C(=O)NC3=O with Cyclin-dependent kinase 2/cyclin E (Homo sapiens, UniProt P24941) as test system.
Found: 0.067 µM

Lookup: Provide IC50, system Cyclin-dependent kinase 2/cyclin E (Homo sapiens, UniProt P24941), entry COC(=O)C1CCN(CCc2cccc3c2[nH]c2c4ccc5ccn(C)c5c4c4c(c32)C(=O)NC4=O)CC1
Found: 0.972 µM

Lookup: Quote Cyclin-dependent kinase 2/cyclin E (Homo sapiens, UniProt P24941) IC50 for entry CCn1ccc2ccc3c(c4c(c5c6ccccc6n(CCCO)c35)C(=O)NC4=O)c21 .
Found: 0.4 µM

Lookup: Look up and report measured IC50 (Cyclin-dependent kinase 2/cyclin E (Homo sapiens, UniProt P24941)) for the following compound: Cn1ccc2ccc3c4[nH]c5cccc(F)c5c4c4c(c3c21)C(=O)NC4=O
Found: > 2 µM

Lookup: Recall the reported IC50 of Cc1cc2ccn(C)c2c2c3c(c4c5ccccc5[nH]c4c12)C(=O)NC3=O when tested on Cyclin-dependent kinase 2/cyclin E (Homo sapiens, UniProt P24941).
Found: 0.07 µM

Lookup: Look up Cyclin-dependent kinase 2/cyclin E (Homo sapiens, UniProt P24941) data: IC50 of COc1ccc2c3c4c(c5c(ccc6ccn(C)c65)c3n(CCCN3CCC(C(N)=O)CC3)c2c1)C(=O)NC4=O , then report it.
Found: 1 µM
